Origin of the recorded values: patent US20250243261A1

Reported pKd values follow for various binders
# System: Ebola GP ectodomain (Mayinga, Zaire, 1976) with the mucin-like domain deleted (Zaire ebolavirus (Mayinga, 1976), UniProt Q05320 33-650)
# pKd is unitless: minus log10 of the molar concentration; print number only

Binder | pKd
mAb114 UCA VH P60A-G61D IgG (antibody, V domains shown) VH: EVQLVESGGGLVQPGGSLRLSCAASGFTFSSYDMHWVRQATGKGLEWVSAIGTAGDTYYADSVKGRFTISRENAKNSLYLQMNSLRAGDTAVYYCVRSDRGVAGLFDSWGQGTLVTVSS VL: DIQMTQSPSSLSASVGDRVTITCRASQGISNYLAWYQQKPGKVPKLLIYAASTLQSGVPSRFSGSGSGTDFTLTISSLQPEDVATYYCQKYNSAPLTFGGGTKVEIK | 6.92

Exercise: # query: pKd of entry mAb114 UCA VH V96A / VL V43A IgG (antibody, V domains shown) VH: EVQLVESGGGLVQPGGSLRLSCAASGFTFSSYDMHWVRQATGKGLEWVSAIGTAGDTYYPGSVKGRFTISRENAKNSLYLQMNSLRAGDTAVYYCARSDRGVAGLFDSWGQGTLVTVSS VL: DIQMTQSPSSLSASVGDRVTITCRASQGISNYLAWYQQKPGKAPKLLIYAASTLQSGVPSRFSGSGSGTDFTLTISSLQPEDVATYYCQKYNSAPLTFGGGTKVEIK
Key: 7.66

Exercise: # query: pKd of entry mAb114 UCA VH A54G IgG (antibody, V domains shown) VH: EVQLVESGGGLVQPGGSLRLSCAASGFTFSSYDMHWVRQATGKGLEWVSAIGTGGDTYYPGSVKGRFTISRENAKNSLYLQMNSLRAGDTAVYYCVRSDRGVAGLFDSWGQGTLVTVSS VL: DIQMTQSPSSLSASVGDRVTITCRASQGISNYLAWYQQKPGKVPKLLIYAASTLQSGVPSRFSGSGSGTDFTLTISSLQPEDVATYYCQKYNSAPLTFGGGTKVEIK
Key: 4.10

Exercise: # query: pKd of entry mAb114 UCA VH T41P IgG (antibody, V domains shown) VH: EVQLVESGGGLVQPGGSLRLSCAASGFTFSSYDMHWVRQAPGKGLEWVSAIGTAGDTYYPGSVKGRFTISRENAKNSLYLQMNSLRAGDTAVYYCVRSDRGVAGLFDSWGQGTLVTVSS VL: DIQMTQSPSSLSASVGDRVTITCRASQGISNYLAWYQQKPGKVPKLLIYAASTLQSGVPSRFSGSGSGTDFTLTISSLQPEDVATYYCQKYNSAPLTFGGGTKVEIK
Key: 7.00

Exercise: # query: pKd of entry mAb114 UCA VH P60A-G61D / VL V43A Fab (Fab, V domains shown) VH: EVQLVESGGGLVQPGGSLRLSCAASGFTFSSYDMHWVRQATGKGLEWVSAIGTAGDTYYADSVKGRFTISRENAKNSLYLQMNSLRAGDTAVYYCVRSDRGVAGLFDSWGQGTLVTVSS VL: DIQMTQSPSSLSASVGDRVTITCRASQGISNYLAWYQQKPGKAPKLLIYAASTLQSGVPSRFSGSGSGTDFTLTISSLQPEDVATYYCQKYNSAPLTFGGGTKVEIK
Key: 6.32
